Origin of values: patent US20190177417A1

Give Affinity ELISA CPE mutant ratio (1:3, pH 6.0/7.4) for every item shown.
Biological target: T1, Axl protein (human, UniProt P30530 26-451)
T1 construct: extracellular domain; also called human Axl; hAxl
T1 sequence (looked up): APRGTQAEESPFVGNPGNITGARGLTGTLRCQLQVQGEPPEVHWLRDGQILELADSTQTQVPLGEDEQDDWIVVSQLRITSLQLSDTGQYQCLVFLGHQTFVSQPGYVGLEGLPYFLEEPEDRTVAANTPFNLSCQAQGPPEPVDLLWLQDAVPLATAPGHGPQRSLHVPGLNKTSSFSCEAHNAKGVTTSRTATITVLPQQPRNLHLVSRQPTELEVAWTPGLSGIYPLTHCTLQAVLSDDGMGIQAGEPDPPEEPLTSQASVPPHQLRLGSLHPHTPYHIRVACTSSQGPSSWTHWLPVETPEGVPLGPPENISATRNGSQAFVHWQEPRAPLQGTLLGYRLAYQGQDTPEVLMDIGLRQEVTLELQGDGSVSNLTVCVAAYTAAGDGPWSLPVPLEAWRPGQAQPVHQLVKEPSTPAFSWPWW
Assay: ELISA, 1:3 dilution, pH 6.0 over pH 7.4
Numbers only; they are read as ratio.

Just so you know, measured Affinity ELISA CPE mutant ratio (1:3, pH 6.0/7.4) for HC-Y104C (antibody, V domains shown) VH: EVQLVQSGAEVKKPGATVKISCKVSGYSFTGHTMNWIRQPPGKGLEWIGLIKPSNGGTSYNQKFKGRVTISADKSISTAYLQWSSLKASDTAMYYCAHGHYESCFAMDYWGQGTLVTVSS VL: DIQMTQSPSSLSASVGDRVTITCKASQDVSSAVAWYQQKPGQAPRLLIYWASTRHTGVPSRFSGSGSGTEFTLTISSLQPDDFATYYCQEHFSTPLTFGQGTKVEIK came out at 1.84

Memo: HC-S103N (antibody, V domains shown) VH: EVQLVQSGAEVKKPGATVKISCKVSGYSFTGHTMNWIRQPPGKGLEWIGLIKPSNGGTSYNQKFKGRVTISADKSISTAYLQWSSLKASDTAMYYCAHGHYENYFAMDYWGQGTLVTVSS VL: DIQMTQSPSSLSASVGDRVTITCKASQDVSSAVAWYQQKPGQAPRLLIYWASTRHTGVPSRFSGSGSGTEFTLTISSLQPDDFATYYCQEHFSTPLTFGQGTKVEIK , reported Affinity ELISA CPE mutant ratio (1:3, pH 6.0/7.4): 1.07

Documented Affinity ELISA CPE mutant ratio (1:3, pH 6.0/7.4) of HC-T033I (antibody, V domains shown) VH: EVQLVQSGAEVKKPGATVKISCKVSGYSFTGHIMNWIRQPPGKGLEWIGLIKPSNGGTSYNQKFKGRVTISADKSISTAYLQWSSLKASDTAMYYCAHGHYESYFAMDYWGQGTLVTVSS VL: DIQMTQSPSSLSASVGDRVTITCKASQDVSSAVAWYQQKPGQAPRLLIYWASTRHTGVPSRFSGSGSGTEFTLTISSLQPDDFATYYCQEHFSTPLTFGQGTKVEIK : 1.59

binder HC-G111H (antibody, V domains shown) VH: EVQLVQSGAEVKKPGATVKISCKVSGYSFTGHTMNWIRQPPGKGLEWIGLIKPSNGGTSYNQKFKGRVTISADKSISTAYLQWSSLKASDTAMYYCAHGHYESYFAMDYWHQGTLVTVSS VL: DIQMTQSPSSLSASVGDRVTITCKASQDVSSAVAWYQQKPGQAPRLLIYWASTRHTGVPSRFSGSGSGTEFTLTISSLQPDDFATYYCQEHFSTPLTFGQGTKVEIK , Affinity ELISA CPE mutant ratio (1:3, pH 6.0/7.4) observed: 1.06

Record HC-H100D (antibody, V domains shown) VH: EVQLVQSGAEVKKPGATVKISCKVSGYSFTGHTMNWIRQPPGKGLEWIGLIKPSNGGTSYNQKFKGRVTISADKSISTAYLQWSSLKASDTAMYYCAHGDYESYFAMDYWGQGTLVTVSS VL: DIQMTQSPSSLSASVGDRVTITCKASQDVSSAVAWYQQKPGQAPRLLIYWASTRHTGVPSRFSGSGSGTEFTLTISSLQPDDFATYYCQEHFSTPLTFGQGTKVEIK . Reported Affinity ELISA CPE mutant ratio (1:3, pH 6.0/7.4): 2.42
